This section presents compounds with their documented IC50 values.
Target: Mitogen-activated protein kinase kinase kinase 5 (Homo sapiens, UniProt Q99683)
Sequence (Q99683 whole entry): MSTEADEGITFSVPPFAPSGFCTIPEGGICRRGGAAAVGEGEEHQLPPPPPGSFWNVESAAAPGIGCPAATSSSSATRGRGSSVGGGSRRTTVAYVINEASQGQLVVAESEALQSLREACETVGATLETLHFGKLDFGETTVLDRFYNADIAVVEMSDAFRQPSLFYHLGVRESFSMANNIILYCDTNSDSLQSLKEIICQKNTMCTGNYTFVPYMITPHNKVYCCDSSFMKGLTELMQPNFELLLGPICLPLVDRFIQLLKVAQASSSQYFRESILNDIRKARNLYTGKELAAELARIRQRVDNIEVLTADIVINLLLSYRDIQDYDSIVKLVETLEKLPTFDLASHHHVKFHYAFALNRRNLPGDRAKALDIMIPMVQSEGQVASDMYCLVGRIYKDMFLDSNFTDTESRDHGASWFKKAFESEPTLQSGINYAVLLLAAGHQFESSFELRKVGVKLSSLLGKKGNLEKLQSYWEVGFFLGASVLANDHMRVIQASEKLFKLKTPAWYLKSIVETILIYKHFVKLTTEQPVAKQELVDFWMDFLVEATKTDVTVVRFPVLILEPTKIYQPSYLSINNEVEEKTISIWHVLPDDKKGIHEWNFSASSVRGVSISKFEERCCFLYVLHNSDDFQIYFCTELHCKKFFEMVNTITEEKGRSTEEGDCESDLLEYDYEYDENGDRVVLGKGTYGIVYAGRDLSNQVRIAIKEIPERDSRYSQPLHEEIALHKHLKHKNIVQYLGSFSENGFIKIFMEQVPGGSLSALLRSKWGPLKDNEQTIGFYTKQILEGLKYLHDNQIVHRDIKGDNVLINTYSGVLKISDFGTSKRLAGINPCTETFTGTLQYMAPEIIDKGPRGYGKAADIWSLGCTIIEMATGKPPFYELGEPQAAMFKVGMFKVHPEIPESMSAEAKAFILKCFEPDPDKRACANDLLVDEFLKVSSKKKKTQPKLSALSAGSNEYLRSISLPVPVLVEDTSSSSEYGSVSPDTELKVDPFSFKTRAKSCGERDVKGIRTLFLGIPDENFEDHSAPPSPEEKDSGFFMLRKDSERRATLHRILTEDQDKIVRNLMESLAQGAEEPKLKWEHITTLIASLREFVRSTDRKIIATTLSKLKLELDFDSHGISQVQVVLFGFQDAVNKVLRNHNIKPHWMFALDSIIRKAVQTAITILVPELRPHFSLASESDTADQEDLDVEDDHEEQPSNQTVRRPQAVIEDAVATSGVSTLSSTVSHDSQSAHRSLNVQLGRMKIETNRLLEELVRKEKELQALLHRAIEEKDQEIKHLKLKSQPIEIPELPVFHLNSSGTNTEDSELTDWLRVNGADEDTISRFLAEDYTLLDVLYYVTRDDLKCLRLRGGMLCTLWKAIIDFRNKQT
Test: Inhibition of ASK1 (unknown origin)
Answer in nM, number only, no unit symbol.

Solved cases (4 shown):
CC(C)n1cnnc1-c1cccc(NC(=O)Nc2cc(C3CC3)n[nH]2)n1 | 124
CC(C)n1cnnc1-c1cccc(NC(=O)Nc2ncc3ccccc3n2)n1 | 65.7
CC(C)n1cnnc1-c1cccc(NC(=O)Nc2ccc(-c3ccn(C)n3)cn2)n1 | 64.2
CC(C)n1cnnc1-c1cccc(NC(=O)Nc2ccc3ccccc3n2)n1 | 69.1

Next:
Q: What measured IC50 goes with `CC(C)n1cnnc1-c1cccc(NC(=O)Nc2ccn[nH]2)n1` ?
Result: 66.7
